Test system: 485176-168-R4-J1-PDC complex spheroid growth;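 also: spheroids exposed to compounds for seven days before readout; luminescence viability expressed relative to DMSO vehicle wells set as 100%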
Experiment: Anticancer human tumor 485176-168-R4-J1-PDC patient-derived pancreatic adenocarcinoma cell line growth inhibition [RAS]
Settings: second compound 1 µM; first compound 1 µM; stronger effect = lower value
Source text: RAS pathway inhibitors in Combinations in Complex Spheroids A high-throughput screen of multi-cell type tumor spheroids was designed to identify active combinations of RAS pathway inhibitors and targeted small molecules. Complex spheroids include a stromal component modeled by human endothelial cells (HUVEC) and fibroblasts modeled by human mesenchymal stem cells (MSCs). […] Compounds. […] If the clinical Cmax for an agent had not been determined, the highest concentration tested was 10 microM. […]
Recorded measurements of viability, T/C, one per entry
Number only, in %; omit the unit.

Some molecules with recorded viability, T/C:
[[record]]
molecule = "CC(=O)OC12COC1CC(O)C1(C)C(=O)C(O)C3=C(C)C(OC(=O)C(O)C(NC(=O)OC(C)(C)C)c4ccccc4)CC(O)(C(OC(=O)c4ccccc4)C21)C3(C)C (centres undefined) + C=CC(=O)N1CCN(c2nc(OCC3CCCN3C)nc3c(F)c(-c4nc(N)cc(C)c4C(F)(F)F)c(Cl)cc23)C(C)C1"
experimental_endpoint = "viability, T/C"
observed = 9.87

[[record]]
molecule = "O=C(c1ccc(F)c(F)c1Nc1ccc(I)cc1F)N1CC(O)([C@@H]2CCCCN2)C1 + C=CC(=O)N1CCN(c2nc(OCC3CCCN3C)nc3c(F)c(-c4nc(N)cc(C)c4C(F)(F)F)c(Cl)cc23)C(C)C1"
experimental_endpoint = "viability, T/C"
observed = 36.6

[[record]]
molecule = "O=C(c1ccc(F)c(F)c1Nc1ccc(I)cc1F)N1CC(O)([C@@H]2CCCCN2)C1 + C#Cc1c(F)ccc2cc(O)cc(-c3ncc4c(N5CC6CCC(C5)N6)nc(OCC56CCCN5CC(F)C6)nc4c3F)c12"
experimental_endpoint = "viability, T/C"
observed = 38.9


Shifting focus to the molecule that follows.
Requested field: viability, T/C. Item: C=CC(=O)Nc1cc(Nc2nccc(-c3cn(C)c4ccccc34)n2)c(OC)cc1N(C)CCN(C)C + C#Cc1c(F)ccc2cc(O)cc(-c3ncc4c(N5CC6CCC(C5)N6)nc(OCC56CCCN5CC(F)C6)nc4c3F)c12 64.4
